The origin of these recorded values is ChEMBL document CHEMBL1148973.

tested on: SF-268; experiment: Cytotoxicity against human SF268 cells after 48 hrs by SRB assay; assay type: functional; conditions: SF-268, 48 h
Experimental endpoint: GI50 (µM)
Your answer should be a plain number; it is taken to be in µM.

- Molecule: "CC(=O)O[C@H]1CC[C@]2(C)C3=CC[C@]4(C)C([C@H](C)CC(=O)C[C@H](C)C(=O)O)=CC[C@@]4(C)[C@@H]3CC[C@H]2C1(C)C"
  GI50, µM: 30.6
- Molecule: "COC(=O)/C(C)=C/[C@H](O)C[C@@H](C)[C@]1(C)CC=C2C3=C(CC[C@]21C)[C@@]1(C)CC[C@@H](O)C(C)(C)[C@@H]1CC3"
  GI50, µM: 38.6

Ask | Sample C/C(=C\CC[C@@H](C)[C@@]1(C)C[C@H]2O[C@]23[C@]1(C)CCC(=O)[C@@]31CC[C@H]2C(C)(C)[C@@H](O)CC[C@@]21C)C(=O)O — what was its GI50?
Reply | 86.4
